Each recorded value in this set is attributed to patent US12357605B2.

Test system: muscle satellite cells
measurement_description: Evaluation of muscle satellite cell activating effect (ratio of BrdU positive cells)
Type: cell-based, SD rat
condition_context: 100 ng/mL, 24 hours culture, BrdU positive cells / total cells; solvent control 41.3%
The reader will find reported Ratio of activated muscle satellite cells, Mean values listed item by item below.
measured_property: Ratio of activated muscle satellite cells, Mean (%)

compound | measured
O=C1OC[C@H]2OC(=O)c3cc(O)c(O)c(O)c3-c3c(O)c(O)c(O)c4c3C(=O)O[C@H]([C@H]3OC(=O)c5c-4c(O)c(O)c(O)c5[C@H]3O)[C@@H]2OC(=O)c2cc(O)c(O)c(O)c2-c2c1cc(O)c(O)c2O [Castalagin, castalagin, reference compound] | 39.4
C[C@@H]1OC(Oc2c(-c3cc(O)c(O)c(O)c3)oc3cc(O)cc(O)c3c2=O)[C@H](O)[C@H](O)[C@H]1O (some centres unmarked) [Myricitrin, myricitrin, reference compound] | 41.8
O=c1c(O[C@@H]2O[C@H](CO)[C@H](O)[C@H](O)[C@H]2O)c(-c2ccc(O)c(O)c2)oc2cc(O)cc(O)c12 [Hyperin, hyperin, reference compound] | 38.2
O=C(O[C@@H]1OC2COC(=O)c3cc(O)c(O)c(O)c3-c3c(cc(O)c(O)c3O)C(=O)O[C@H]2[C@@H]2OC(=O)c3cc(O)c(O)c(O)c3-c3c(cc(O)c(O)c3O)C(=O)OC12)c1cc(O)c(O)c(O)c1 (some centres unmarked) [Casuarictin, casuarictin, reference compound] | 39.2
C[C@@H]1O[C@@H](Oc2c(-c3ccc(O)c(O)c3)oc3cc(O)cc(O)c3c2=O)[C@H](O)[C@H](O)[C@H]1O [Quercitrin, quercitrin, reference compound] | 40.0
